System: HT29 colon
procedureSummary: NCI tumour cell line growth inhibition, 48 h
propertyLabel: TGI

Input O=C1CC(C(=O)O)Cc2c(Br)ccc(O)c21 (stereo unspecified) . Output TGI: > 100 µM

Input CC1(C)CCCC2CC2CCC(C)(C)C1=O (stereo unspecified) . Output TGI: > 100 µM

Input O=C1CNc2cc(N3CCOCC3)ccc2N1 . Output TGI: > 100 µM

Input c1ccc(COCC[P+](c2ccccc2)(c2ccccc2)c2ccccc2)cc1 . Output TGI: 8.3 µM

Input O=C(/C=C/c1ccco1)Nc1ncc(Cc2cccc(C(F)(F)F)c2)s1 . Output TGI: > 33 µM

Input CC(=O)n1nnc2ccc([N+](=O)[O-])cc21 . Output TGI: > 100 µM

###

Give TGI for every item shown.
Test system: K-562 leukemia
procedureSummary: NCI tumour cell line growth inhibition, 48 h
Form entry: value (µM) — number only.

Input CCN(CC)CCCC(C)Nc1c2ccc(Cl)cc2nc2cc(Cl)ccc12 (stereo not given) . Output TGI: 5.05

Input CCC[CH2][Sn]1([CH2]CCC)[O]C(=O)CN=C(C)c2ccccc2[O]1 . Output TGI: 4.74

Input N#CC(c1ccccc1)N(CCc1ccccc1)C(=O)c1ccc(C(=O)N(CCc2ccccc2)C(C#N)c2ccccc2)cc1 (stereo not given) . Output TGI: 67.4

Input COc1ccc2nc3cc(Cl)ccc3c(NCCNCC(O)CO)c2c1 (stereo not given) . Output TGI: 10.2

Input c1ccc(COCC[P+](c2ccccc2)(c2ccccc2)c2ccccc2)cc1 . Output TGI: 16

Input CN(C)CCCOc1ccc(/C=C2/CCC/C(=C/c3ccc(OCCCN(C)C)cc3)C2=O)cc1 . Output TGI: 1.24

###

System: OVCAR-5 ovarian
procedureSummary: NCI tumour cell line growth inhibition, 48 h
Give TGI for every item shown.

Input CCC1=C[C@@H]2CN(C1)Cc1c([nH]c3ccccc13)[C@@](C(=O)OC)(c1cc3c(cc1OC)N(C)[C@H]1[C@@](O)(C(=O)OC)[C@H](OC(C)=O)[C@]4(CC)C=CCN5CC[C@]31[C@@H]54)C2 . Output TGI: 27.2 µM

Input O=C(O)CCNc1ncc2c(n1)-c1ccccc1OC2 . Output TGI: > 100 µM

Input CC(NC(=O)C(N)CC(=O)O)C(=O)OC12CC3CC(CC(C3)C1)C2 (stereo unspecified) . Output TGI: > 100 µM

Input O=C[C@]12CC=C3OC4OC5(CCCCC5)OC4[C@H]3[C@H]1C(=O)C=CC2=O (stereo partly specified) . Output TGI: > 100 µM

Input O=[N+]([O-])c1ccc(Cc2nc3cc4ccccc4cc3[nH]2)cc1C(F)(F)F . Output TGI: 27.5 µM

Input CC1OC(OC2C(OC(=O)[C@]34CCC(C)(C)CC3C3=CCC5[C@@]6(C)C[C@H](O)[C@H](OC7OC(COC8OC(CO)C(O)C(O)C8O)C(O)C(O)C7O)[C@@](C)(C(=O)O)C6CC[C@@]5(C)C3(C)CC4)OCC(O)C2O)C(O)C(O)C1OC1OCC(O)C(O)C1O (stereo partly specified) . Output TGI: > 100 µM

###

System: RPMI-8226 leukemia
procedureSummary: NCI tumour cell line growth inhibition, 48 h; in the data active = GI50 below about 0.43 µM; inactive = the rest
Thanks in advance; please answer with one of these: t (active), f (inactive)

### Prompt Given COc1ccc(CN2C(=O)/C(=C\C(=O)c3ccc(OCCN4CCCC4)cc3)c3ccccc32)cc1 , state the outcome it received in this test.
### Response f

### Prompt Given O=C(COc1cccc(/C=C2\COc3ccccc3C2=O)c1)c1ccccc1 , state the outcome it received in this test.
### Response f

### Prompt Given CN1CCN(Cc2ccc(NC(=O)c3cncc(C#Cc4c(N)ncc5c(F)cccc45)c3)cc2C(F)(F)F)CC1 , state the outcome it received in this test.
### Response f

### Prompt Given CCNC(=O)Oc1ccc(/C(=C(\C)c2ccc(Cl)cc2)c2ccc(OCCN(CC)CC)cc2)cc1 , state the outcome it received in this test.
### Response f

### Prompt Given O=C(CN1CCN(CCN2C(=O)c3cccc4cccc(c34)C2=O)CC1)Nc1ccc2ncsc2c1 , state the outcome it received in this test.
### Response f

### Prompt Given C=C1C(=O)O[C@@H]2C[C@@H]1CC[C@]1(C)O[C@H]1CC/C(C)=C/CC[C@@]2(C)O , state the outcome it received in this test.
### Response f

### Prompt Given O=C(/C=C/c1ccco1)Nc1ncc(Cc2cccc(C(F)(F)F)c2)s1 , state the outcome it received in this test.
### Response t

### Prompt Given CCC1=C[C@@H]2CN(C1)Cc1c([nH]c3ccccc13)[C@@](C(=O)OC)(c1cc3c(cc1OC)N(C)[C@H]1[C@@](O)(C(=O)OC)[C@H](OC(C)=O)[C@]4(CC)C=CCN5CC[C@]31[C@@H]54)C2 , state the outcome it received in this test.
### Response t

### Prompt Given CC(=O)NC(CS)C(=O)O (configuration not stated) , state the outcome it received in this test.
### Response f

### Prompt Given CS(=O)(=O)c1ccc2c(c1)C(=O)c1c-2n(CCCBr)c(=O)c2cc([N+](=O)[O-])ccc12 , state the outcome it received in this test.
### Response f

### Prompt Given CC(C)(C)[Si](C)(C)OC1[C@@H](O[Si](C)(C)C(C)(C)C)[C@@H](CNC(=O)NC(=O)NC(=O)CCl)O[C@H]1n1cnc2c(NC(=O)Nc3ccccc3)ncnc21 (some centres not stated) , state the outcome it received in this test.
### Response f

### Prompt Given N.N.N.N.N.N#Cc1nn[n-]n1.[Cl-].[Co+3] , state the outcome it received in this test.
### Response f

### Prompt Given [N-]=[N+]=NCCCn1c2c(c3ccc([N+](=O)[O-])cc3c1=O)C(=O)c1cc(I)ccc1-2 , state the outcome it received in this test.
### Response f

### Prompt Given Cc1ccc(/C=C(/C#N)n2nnc3ncccc32)cc1 , state the outcome it received in this test.
### Response f

### Prompt Given COc1ccc(N=N/C(=N\NC(=O)c2cc(Br)ccc2O)c2ccc(N(CCC#N)CCC#N)cc2OC)cc1 , state the outcome it received in this test.
### Response f

### Prompt Given Nc1nc(=S)c2ncn(C3OC(CO)C(O)C3O)c2[nH]1 (configuration not stated) , state the outcome it received in this test.
### Response t

### Prompt Given Cc1cc(O[C@@H]2O[C@@H](C)[C@H](O)[C@@H](O)[C@H]2O)c2c3c(c(O[C@@H]4O[C@@H](C)[C@H](O)[C@@H](O)[C@H]4O)cc2c1)C(=O)c1c(O)cccc1C3=O , state the outcome it received in this test.
### Response f

###

Give TGI for every item shown.
System: NCI-H226 lung
procedureSummary: NCI tumour cell line growth inhibition, 48 h

Input NC1=NCC(CN2CCCCC2)O1 (stereo unspecified) . Output TGI: > 100 µM

Input O=[N+]([O-])c1cnc(N(CCO)CCO)s1 . Output TGI: > 100 µM

Input CCSc1nc(NC(C)c2ccccc2)c2cnn(CO)c2n1 (stereo unspecified) . Output TGI: > 100 µM

Input O=C(/C=C\c1ccsc1)c1ccccc1 . Output TGI: 34.1 µM

Input O=S(=O)(O)c1ccc(Nc2ccnc3ccccc23)cc1 . Output TGI: > 100 µM

Input C=C1C(=O)O[C@@H]2C[C@@H]1CC[C@]1(C)O[C@H]1CC/C(C)=C/CC[C@@]2(C)O . Output TGI: 59.2 µM

###

System: NCI-H226 lung
procedureSummary: NCI tumour cell line growth inhibition, 48 h
Give log10(TGI) for every item shown.
Log scale reminder: TGI in µM, then log10 taken.

Bench note, NCI-H226 lung: entry O=c1c2cccc(F)c2sc2c(NCCCNCCO)nc3ccccc3c12 , its log10(TGI) = 0.53

Bench note, NCI-H226 lung: entry CSC1=C(SC)C(=O)c2cn(C)c(=O)cc2C1=O , its log10(TGI) = 1.61

Bench note, NCI-H226 lung: entry N#CC(C(=O)/C(=N/NC(=O)c1ccccc1O)C(C#N)c1ccc(Br)cc1)c1ccc(Br)cc1 (stereo unspecified) , its log10(TGI) = 1.28

Bench note, NCI-H226 lung: entry CCC(CC)c1cc(N[C@H]2CC[C@H](N)C2)n2nccc2n1 , its log10(TGI) = 1.69

Bench note, NCI-H226 lung: entry CCNC(=O)Oc1ccc(/C(=C(\C)c2ccc(Cl)cc2)c2ccc(OCCN(CC)CC)cc2)cc1 , its log10(TGI) = 1.60

Bench note, NCI-H226 lung: entry C/C=C(\C)c1cc(=O)c2c(C)cc3c(c2o1)C(OC)(OC(C)=O)c1c(O)c(C2CC(C)(N(C)C)C(OC(C)=O)C(C)O2)cc(C2CC(N(C)C)C(OC(C)=O)C(C)O2)c1C3=O (stereo unspecified) , its log10(TGI) = 0.70

Bench note, NCI-H226 lung: entry CC(C)=CC1C(COC(=O)c2ccccc2Cl)C1(C)C (stereo unspecified) , its log10(TGI) = 1.91

Bench note, NCI-H226 lung: entry C=C1C2C[C@@H]3O[C@H]4C[C@H]5O[C@@]6(C[C@@H]7O[C@]8(C[C@H](C)[C@@H]9O[C@@H]%10CC(C=O)O[C@@H]%10C[C@@H]9O8)C[C@H](C)[C@@H]7O6)C[C@H]5O[C@H]4[C@H](C)[C@H]3OC(=O)C[C@H]3CC[C@@H]4OC5[C@H]6O[C@]7(CC[C@H]8CC(=C)[C@H](CC[C@@H](C[C@H]1C)O2)O8)CC6O[C@@H]5[C@@H](O7)[C@H]4O3 (stereo partly specified) , its log10(TGI) = -1.92

Bench note, NCI-H226 lung: entry COc1cc(/C=N/N=C(\N)NO)ccc1O , its log10(TGI) = 1.93

Bench note, NCI-H226 lung: entry CC(=O)Nc1c2sscc-2n(C)c1=O , its log10(TGI) = 0.53

Bench note, NCI-H226 lung: entry Clc1ccc(C2CC(c3cccc(Nc4ccncc4)c3)=NN2c2ccccc2)cc1 (stereo unspecified) , its log10(TGI) = 1.60

Bench note, NCI-H226 lung: entry Cc1c2oc3c(C)cnc(C(=O)NC4C(=O)NC(C(C)C)C(=O)N5CCCC5C(=O)N(C)CC(=O)N(C)C(C(C)C)C(=O)OC4C)c3nc-2c(C(=O)NC2C(=O)NC(C(C)C)C(=O)N3CCCC3C(=O)N(C)CC(=O)N(C)C(C(C)C)C(=O)OC2C)c(N)c1=O (stereo unspecified) , its log10(TGI) = 1.38

Bench note, NCI-H226 lung: entry Cc1ccc(/C=C(/C#N)n2nnc3ncccc32)cc1 , its log10(TGI) = 1.45

Bench note, NCI-H226 lung: entry CC(=O)N(C)c1cc(NCc2ccccc2)ccc1OCc1ccccc1 , its log10(TGI) = 1.56

Bench note, NCI-H226 lung: entry CCN(CC)CCCC(C)Nc1c2ccc(Cl)cc2nc2cc(Cl)ccc12 (stereo unspecified) , its log10(TGI) = 0.99

Bench note, NCI-H226 lung: entry O=C1C(Cl)=C(N2CCN(CCOCCO)CC2)C(=O)c2ccccc21 , its log10(TGI) = 1.49

Bench note, NCI-H226 lung: entry CCC1=C[C@@H]2CN(C1)Cc1c([nH]c3ccccc13)[C@@](C(=O)OC)(c1cc3c(cc1OC)N(C)[C@H]1[C@@](O)(C(=O)OC)[C@H](OC(C)=O)[C@]4(CC)C=CCN5CC[C@]31[C@@H]54)C2 , its log10(TGI) = 1.56

Bench note, NCI-H226 lung: entry COC1=CC(c2ccc[nH]2)=N/C1=C\c1[nH]c(C)c(C(=O)Oc2ccccc2)c1C , its log10(TGI) = 0.29

Measured values drawn from PubChem BioAssay (NCI) for this set.
